# IC50 per entry
molecular target: UniProtKB P26358; experiment: DNMT1 inhibition assay (transfer of radioactivity from [Me-3H]-SAM to hemimethylated double-stranded DNA); format: biochemical; conditions: 100 nM DNMT1, 1 μM [Me-3H]-SAM, 1 μM 26 bp hemimethylated DNA substrate, 37° C., 2 hours
Sequence (P26358 whole entry, looked up): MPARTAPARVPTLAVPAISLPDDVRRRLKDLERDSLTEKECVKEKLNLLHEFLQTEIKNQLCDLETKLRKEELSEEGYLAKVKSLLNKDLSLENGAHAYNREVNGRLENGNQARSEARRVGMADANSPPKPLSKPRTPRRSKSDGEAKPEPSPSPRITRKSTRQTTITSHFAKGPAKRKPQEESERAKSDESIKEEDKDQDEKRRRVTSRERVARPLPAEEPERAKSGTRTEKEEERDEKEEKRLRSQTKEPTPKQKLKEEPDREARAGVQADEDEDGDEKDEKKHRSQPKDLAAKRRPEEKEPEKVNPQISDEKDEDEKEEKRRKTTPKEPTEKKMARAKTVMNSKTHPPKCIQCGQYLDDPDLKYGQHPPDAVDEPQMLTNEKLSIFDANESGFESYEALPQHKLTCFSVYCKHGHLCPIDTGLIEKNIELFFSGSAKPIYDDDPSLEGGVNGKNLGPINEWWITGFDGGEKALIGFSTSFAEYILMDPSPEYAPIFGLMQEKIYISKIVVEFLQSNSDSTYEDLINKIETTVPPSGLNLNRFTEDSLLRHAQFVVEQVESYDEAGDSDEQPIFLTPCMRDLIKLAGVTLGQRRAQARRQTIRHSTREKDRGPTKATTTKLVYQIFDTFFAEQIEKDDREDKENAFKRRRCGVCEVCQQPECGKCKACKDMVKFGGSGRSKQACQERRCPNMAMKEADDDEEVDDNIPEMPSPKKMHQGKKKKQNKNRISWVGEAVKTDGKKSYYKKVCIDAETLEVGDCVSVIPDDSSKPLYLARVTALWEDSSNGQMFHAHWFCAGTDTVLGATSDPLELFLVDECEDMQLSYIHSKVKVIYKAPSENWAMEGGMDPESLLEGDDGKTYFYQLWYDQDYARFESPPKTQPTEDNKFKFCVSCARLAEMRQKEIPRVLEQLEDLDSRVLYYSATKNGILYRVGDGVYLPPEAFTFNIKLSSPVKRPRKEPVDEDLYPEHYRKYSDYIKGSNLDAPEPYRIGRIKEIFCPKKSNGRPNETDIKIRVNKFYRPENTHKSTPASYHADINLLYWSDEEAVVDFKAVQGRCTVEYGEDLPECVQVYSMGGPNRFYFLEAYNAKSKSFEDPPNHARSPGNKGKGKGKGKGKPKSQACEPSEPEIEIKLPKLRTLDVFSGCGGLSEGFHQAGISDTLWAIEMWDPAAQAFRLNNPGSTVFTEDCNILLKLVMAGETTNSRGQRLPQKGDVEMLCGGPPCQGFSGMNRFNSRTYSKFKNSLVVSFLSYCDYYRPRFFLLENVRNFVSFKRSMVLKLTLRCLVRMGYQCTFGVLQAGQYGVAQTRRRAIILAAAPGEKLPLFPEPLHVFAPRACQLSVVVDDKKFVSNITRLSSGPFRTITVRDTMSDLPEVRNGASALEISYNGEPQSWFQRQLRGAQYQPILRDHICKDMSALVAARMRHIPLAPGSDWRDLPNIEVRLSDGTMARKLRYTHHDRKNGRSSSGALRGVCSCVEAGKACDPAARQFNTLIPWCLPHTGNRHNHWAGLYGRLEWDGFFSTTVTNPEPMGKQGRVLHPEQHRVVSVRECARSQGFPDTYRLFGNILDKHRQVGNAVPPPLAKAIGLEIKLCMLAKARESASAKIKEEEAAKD
Report only the number, with the unit µM understood.

>  <compound>
NC1=NC(=O)N([C@H]2C[C@H](O)[C@@H](CO)O2)CN1CCCCCN(CC[C@H](N)C(=O)O)C[C@H]1O[C@@H](n2cnc3c(N)ncnc32)[C@H](O)[C@@H]1O [Compound 86]

>  <IC50 (µM)>
6

$$$$
>  <compound>
Nc1nc(=O)n(C2C[C@H](O)[C@@H](CO)O2)cc1SCCN(CC[C@H](N)C(=O)O)C[C@H]1O[C@@H](n2cnc3c(N)ncnc32)[C@H](O)[C@@H]1O (stereo in doubt) [Compound 42]

>  <IC50 (µM)>
15.4

$$$$
>  <compound>
Nc1nc(=O)n([C@H]2C[C@H](O)[C@@H](CO)O2)cc1CNCC(CC[C@H](N)C(=O)O)C[C@H]1O[C@@H](n2cnc3c(N)ncnc32)[C@H](O)[C@@H]1O (stereo partly drawn) [Compound 70]

>  <IC50 (µM)>
2.2

$$$$
>  <compound>
Nc1nc(=O)n(C2C[C@H](O)[C@@H](CO)O2)cc1CCN(CC[C@H](N)C(=O)O)C[C@H]1O[C@@H](n2cnc3c(N)ncnc32)[C@H](O)[C@@H]1O (stereo in doubt) [Compound 56]

>  <IC50 (µM)>
1.9

$$$$
>  <compound>
Nc1nc(=O)n(C2C[C@H](O)[C@@H](CO)O2)cc1CCCN(CC[C@H](N)C(=O)O)C[C@H]1O[C@@H](n2cnc3c(N)ncnc32)[C@H](O)[C@@H]1O (stereo in doubt) [Compound 33]

>  <IC50 (µM)>
0.8

$$$$

Here is the next item to consider.
Identify the reported IC50 for the following entry. Nc1nc(=O)n([C@H]2C[C@H](O)[C@@H](CO)O2)cc1CN(CC[C@H](N)C(=O)O)C[C@H]1O[C@@H](n2cnc3c(N)ncnc32)[C@H](O)[C@@H]1O [Compound 7]
0.7

Data origin: patent US11518779B2
